subject of test: human TYK2 (JH2domain-pseudokinase) (Homo sapiens (Human))
Sequence (P29597 556-888): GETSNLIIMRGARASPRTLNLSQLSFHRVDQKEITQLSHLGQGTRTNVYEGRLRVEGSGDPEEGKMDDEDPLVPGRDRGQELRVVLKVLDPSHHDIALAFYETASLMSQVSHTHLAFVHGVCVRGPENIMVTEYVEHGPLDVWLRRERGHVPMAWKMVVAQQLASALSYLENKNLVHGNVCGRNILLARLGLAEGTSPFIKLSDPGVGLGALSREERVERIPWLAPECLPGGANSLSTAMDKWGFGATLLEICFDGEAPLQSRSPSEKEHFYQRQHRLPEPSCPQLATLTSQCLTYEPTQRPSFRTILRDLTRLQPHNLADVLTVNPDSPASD
experiment description: TYK2 JH2 Domain Binding Assay (KINOMEscan)
Protocol: Binding constants for compounds of the present invention against the JH2 domain were determined by the following protocol for a KINOMEscan® assay (DiscoveRx). […] The TYK2 (JH2domain-pseudokinase) fusion protein was labeled with a chimeric double-stranded DNA tag containing the NFkB binding site (5′-[…]-3′) fused to an amplicon for qPCR readout, which was added directly to the expression extract (the final concentration of DNA-tag in the binding reaction is 0.1 nM). […]
pKd: −log10 of the molar value.
Entries and their pKd

Worked examples, 6 compounds total:
Need pKd, item CNc1cc(-c2cn(CCN3CCCCC3)c3ncccc23)nc2c(C(N)=O)cnn12
> 9.70

Need pKd, item CNc1cc(Nc2cccnc2OC2CCOCC2)nc2c(C(=O)NC3CCC3)cnn12
9.00 to 9.70

Need pKd, item CNc1cc(Nc2c(F)ccn(-c3nccs3)c2=O)nc2c(C(=O)N[C@H]3C[C@H]3F)cnn12
9.00 to 9.70

Need pKd, item CNc1cc(Nc2cccn(-c3ocnc3C)c2=O)nc2c(C(=O)N[C@H]3CC[C@H]3O)cnn12
< 8.00

Need pKd, item CNc1cc(Nc2cc(Cl)cn(C3CCCOC3)c2=O)nc2c(C(=O)N[C@H]3C[C@H]3F)cnn12 (some centres unmarked)
> 9.70

Need pKd, item CNc1cc(Nc2cccn([C@H]3CCC[C@H](O)C3)c2=O)nc2c(C(=O)N[C@@H]3CC[C@H]3OC)cnn12
9.00 to 9.70

More entries:
Need pKd, item CNc1cc(-c2cn([C@@H]3CCN(CCF)C3)c3ncccc23)nc2c(C(=O)N[C@@H]3C[C@@H]3F)cnn12
8.00 to 9.00

Need pKd, item CNc1cc(Nc2cc(Cl)cnc2OC(C)C)nc2c(C(=O)NC3CCC3)cnn12
8.00 to 9.00
